B1: DLC1 (parent)
chain: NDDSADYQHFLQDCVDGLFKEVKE

# Variants of: B1
# ASSAY TEXT: protein stability index of a GFP-peptide fusion (GPS, HEK-293T) (PSI 1-6); higher = more stable;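 note: lentivirally expressed fusions sorted by FACS into six bins by GFP to DsRed ratio, PSI derived from sequencing read proportions per bin multiplied by bin number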
# CONDITION INFO: c terminus: a fixed tail appended
REPORTED METRIC: protein stability index
Give the figure only, with no unit attached.

Before answering, review these 8 worked examples.
[[record]]
sequence_change = "V22N"
reported_metric = "protein stability index"
quantitative_readout = 5.27

[[record]]
sequence_change = "Q12Y"
reported_metric = "protein stability index"
quantitative_readout = 3.71

[[record]]
sequence_change = "D16C"
reported_metric = "protein stability index"
quantitative_readout = 2.29

[[record]]
sequence_change = "D13V"
reported_metric = "protein stability index"
quantitative_readout = 1.56

[[record]]
sequence_change = "S4Y"
reported_metric = "protein stability index"
quantitative_readout = 2.22

[[record]]
sequence_change = "G17H"
reported_metric = "protein stability index"
quantitative_readout = 2.37

[[record]]
sequence_change = "K20I"
reported_metric = "protein stability index"
quantitative_readout = 3.05

[[record]]
sequence_change = "D6M"
reported_metric = "protein stability index"
quantitative_readout = 2.63


# input Could you tell me which protein stability index is on file for `Q8P` ?
# output 2.64

# input Could you tell me which protein stability index is on file for `L18C` ?
# output 5.13

# input Could you tell me which protein stability index is on file for `F19K` ?
# output 5.25

# input Could you tell me which protein stability index is on file for `K23L` ?
# output 2.06
